Details: rat, in vivo, iv
propertyLabel: t1/2 (time to half plasma elimination) (min)

Answered cases to consult:
{"compound": "CN[C@H](Cc1ccccc1)C(=O)N1CCC[C@H]1C(=O)N[C@@H](CCCNC(=N)N)C(=O)c1nc2ccc(CO)cc2s1 [Compound 15]", "unitString": "min", "t1/2 (time to half plasma elimination)": 16}
{"compound": "CN[C@H](Cc1ccccc1)C(=O)N1CCC[C@H]1C(=O)N[C@@H](CCCNC(=N)N)C(=O)c1nc2ccc(C(=O)OC)cc2s1 [Compound 12]", "unitString": "min", "t1/2 (time to half plasma elimination)": 43}
{"compound": "CNC(Cc1ccccc1)C(=O)N1CCCC1C(=O)NC(CCCNC(=N)N)C(=O)c1nccs1 (centres unmarked) [Compound 4]", "unitString": "min", "t1/2 (time to half plasma elimination)": 16}
{"compound": "CN[C@H](Cc1ccc(F)cc1)C(=O)N1CCC[C@H]1C(=O)N[C@@H](CCCNC(=N)N)C(=O)c1nc2ccccc2s1 [Compound 32]", "unitString": "min", "t1/2 (time to half plasma elimination)": 19}
{"compound": "CC(=O)N[C@H](Cc1ccccc1)C(=O)N1CCC[C@H]1C(=O)N[C@@H](CCCNC(=N)N)C(=O)c1nc2ccccc2s1.O=C(O)C(F)(F)F [Compound 35]", "unitString": "min", "t1/2 (time to half plasma elimination)": 11}
{"compound": "CNC(Cc1ccccc1)C(=O)N1CCCC1C(=O)NC(CCCNC(=N)N)C(=O)c1nc2ccccc2[nH]1 (centres unmarked) [Compound 21]", "unitString": "min", "t1/2 (time to half plasma elimination)": 5}
{"compound": "CN[C@@H](C(=O)N1CCC[C@H]1C(=O)N[C@@H](CCCNC(=N)N)C(=O)c1nc2ccccc2s1)C1CCCCC1 [Compound 37]", "unitString": "min", "t1/2 (time to half plasma elimination)": 42}
{"compound": "CN[C@H](Cc1ccccc1)C(=O)N1CCC[C@H]1C(=O)N[C@@H](CCCNC(=N)N)C(=O)c1nc2ccc(C(=O)O)cc2s1 [Compound 13]", "unitString": "min", "t1/2 (time to half plasma elimination)": 25}

I = CN[C@H](Cc1ccccc1)C(=O)N1CCC[C@H]1C(=O)N[C@@H](CCCNC(=N)N)C(=O)c1nc2ccccc2s1 [Compound 1]
II = CN[C@H](Cc1ccccc1)C(=O)N1CCC[C@H]1C(=O)N[C@@H](CCCNC(=N)N)C(=O)c1nc2ccc(F)cc2s1 [Compound 17]
Enquiry: Select the item whose t1/2 (time to half plasma elimination) value is smaller, choosing between I and II . Reply with the label of the item you choose.
Return: II
(II: 8 min, I: 19 min)

A = CN[C@H](Cc1ccccc1)C(=O)N1CCC[C@H]1C(=O)N[C@@H](CCCNC(=N)N)C(=O)c1nc(C(=O)O)cs1 [Compound 54]
B = CN[C@H](Cc1c(F)c(F)c(F)c(F)c1F)C(=O)N1CCC[C@H]1C(=O)N[C@@H](CCCNC(=N)N)C(=O)c1nc2ccccc2s1 [Compound 30]
Enquiry: Which record would sort first by descending t1/2 (time to half plasma elimination), A or B ? Answer by quoting the chosen item's label.
Return: A

A = CCOC(=O)c1csc(C(=O)[C@H](CCCNC(=N)N)NC(=O)[C@@H]2CCCN2C(=O)[C@@H](Cc2ccccc2)NC)n1 [Compound 19]
B = CN[C@H](Cc1ccccc1)C(=O)N1CCC[C@H]1C(=O)N[C@@H](CCCNC(=N)N)C(=O)c1nc2ccc3ccccc3c2s1 [Compound 52]
Enquiry: For the pair A and B , which member has the lower t1/2 (time to half plasma elimination) number? State the label of the item chosen.
Return: B
(B: 5 min, A: 14 min)
